experiment: Selectivity index, ratio of CC50 for human MT4 cells to EC50 for reverse transcriptase F227L/V106A double mutant in human MT4 cells infected HIV1 3B; conditions: MT4 cells
Below: a set of entries, each annotated with reported selectivity ratio.

Some solved cases for reference:
Cc1cc(C#N)cc(C)c1Oc1nc(NC2CCC(NCc3ccc(S(C)(=O)=O)cc3)CC2)nc2ccsc12 (stereo not drawn) ... < 1
Cc1cc(C#N)cc(C)c1Oc1nc(NC2CCC(NCc3ccc(O)cc3)CC2)nc2ccsc12 (stereo not drawn) ... < 1

# selectivity ratio (molecule: Cc1cc(C#N)cc(C)c1Oc1nc(NC2CCC(NCc3ccc(Br)cc3)CC2)nc2ccsc12 (stereo not drawn) ) is < 1

* * *

Below: a set of entries, each annotated with reported selectivity ratio.
assay: Selectivity index, ratio of CC50 for human MT4 cells to EC50 for reverse transcriptase E138K mutant in human MT4 cells infected HIV1 3B; settings: MT4 cells

Some solved cases for reference:
Cc1cc(C#N)cc(C)c1Oc1nc(NC2CCN(Cc3cccc(C(N)=O)c3)CC2)nc2sccc12 ... > 5610
Cc1cc(C#N)cc(C)c1Oc1nc(NC2CCN(Cc3ccc(S(N)(=O)=O)cc3)CC2)nc2ccsc12 ... > 78100
Cc1cc(C#N)cc(C)c1Oc1nc(NC2CCC(NCc3ccc(F)cc3)CC2)nc2ccsc12 (configuration not stated) ... ≤ 2
Cc1cc(C#N)cc(C)c1Oc1nc(NC2CCC(NCc3cccc(C(F)(F)F)c3)CC2)nc2ccsc12 (configuration not stated) ... < 1
Cc1cc(C#N)cc(C)c1Oc1nc(NC2CCC(NCc3ccc(C#N)cc3)CC2)nc2ccsc12 (configuration not stated) ... < 1

# selectivity ratio (molecule: CCOC(=O)c1ccc(CN2CCC(Nc3nc(Oc4c(C)cc(C#N)cc4C)c4ccsc4n3)CC2)cc1 ) is > 463

# selectivity ratio (molecule: CCOC(=O)c1ccc(CN2CCC(Nc3nc(Oc4c(C)cc(/C=C/C#N)cc4C)c4sccc4n3)CC2)cc1 ) is ≥ 96

* * *

assay: Cytotoxicity against human MT4 cells assessed as cell viability after 5 days by MTT assay; type: cell-based
quantityName: CC50 at 120 h

Cc1cc(C#N)cc(C)c1Oc1nc(NC2CCC(NCc3cccc(C(F)(F)F)c3)CC2)nc2ccsc12 (configuration not stated) ... 707 nM
Cc1ccnc2c1NC(=O)c1cccnc1N2C1CC1 ... > 15000 nM
Cc1cc(C#N)cc(C)c1Oc1nc(NC2CCN(Cc3ccc(C(N)=O)cc3)CC2)nc2sccc12 ... 4930 nM
Cc1ccc(CN2CCC(Nc3nc(Oc4c(C)cc(/C=C/C#N)cc4C)c4sccc4n3)CC2)cc1 ... 2910 nM
Cc1cc(C#N)cc(C)c1Oc1nc(NC2CCC(NCc3ccccc3)CC2)nc2ccsc12 (configuration not stated) ... 2970 nM

# CC50 at 120 h (molecule: Cc1cc(/C=C/C#N)cc(C)c1Oc1nc(NC2CCN(Cc3ccc([N+](=O)[O-])cc3)CC2)nc2ccsc12 ) is 3520 nM

# CC50 at 120 h (molecule: Cc1cc(/C=C/C#N)cc(C)c1Oc1nc(NC2CCN(Cc3cccc(C#N)c3)CC2)nc2ccsc12 ) is 2820 nM
